tested on: L1210; assay: In vitro concentration required to inhibit 50% growth of murine L1210 leukemia cells; assay type: functional; conditions: Mus musculus, read-out: ID50 (the source's name)
pIC50: −log10 of the molar value.
Returns 1 if the recorded pIC50 is greater than or equal to 9, and 0 otherwise.

[
  {
    "compound": "Cc1c[nH]c2c1C13CC1CN(C(=O)c1cc4cc(NC(=O)c5cc6ccccc6o5)ccc4[nH]1)C3=CC2=O (stereo not drawn)",
    "discrete label": 1
  },
  {
    "compound": "Cc1c[nH]c2c1C13CC1CN(C(=O)c1ccccc1)C3=CC2=O (stereo not drawn)",
    "discrete label": 0
  },
  {
    "compound": "Cc1c[nH]c2c1C13CC1CN(S(=O)(=O)c1ccccc1)C3=CC2=O (stereo not drawn)",
    "discrete label": 0
  },
  {
    "compound": "Cc1c[nH]c2c1C13CC1CN(C(=O)c1ccc(NC(=O)c4ccccc4)cc1)C3=CC2=O (stereo not drawn)",
    "discrete label": 1
  },
  {
    "compound": "Cc1c[nH]c2c1C13CC1CN(C(=O)c1ccc4ccccc4n1)C3=CC2=O (stereo not drawn)",
    "discrete label": 0
  },
  {
    "compound": "Cc1c[nH]c2c1C13CC1CN(C(=O)c1ccc4ccccc4c1)C3=CC2=O (stereo not drawn)",
    "discrete label": 0
  },
  {
    "compound": "CCCCCCCCCC(=O)N1CC2CC23C1=CC(=O)c1[nH]cc(C)c13 (stereo not drawn)",
    "discrete label": 0
  },
  {
    "compound": "COc1c(O)c2c(c3cc(C(=O)N4CCc5c4c(O)c(OC)c4[nH]c(C(=O)N6C[C@H]7C[C@@]78C6=CC(=O)c6[nH]cc(C)c68)cc54)[nH]c13)CCN2C(N)=O [(+)-CC-1065]",
    "discrete label": 1
  }
]

###

test: Lipophilic/hydrophilic partitioning (RP-TLC); type: ADME; settings: 2:1 DMF-saline
In this section we review reported Rf values for a set of molecules.

[
  {
    "molecule": "Cc1c[nH]c2c1C13CC1CN(S(C)(=O)=O)C3=CC2=O (stereo unspecified)",
    "Rf": 0.82
  },
  {
    "molecule": "Cc1c[nH]c2c1C13CC1CN(C(=O)c1ccccn1)C3=CC2=O (stereo unspecified)",
    "Rf": 0.76
  },
  {
    "molecule": "Cc1c[nH]c2c1C13CC1CN(C(=O)c1ccccc1)C3=CC2=O (stereo unspecified)",
    "Rf": 0.63
  },
  {
    "molecule": "Cc1c[nH]c2c1C13CC1CN(C(=O)c1cc4cc(NC(N)=O)ccc4[nH]1)C3=CC2=O (stereo unspecified)",
    "Rf": 0.89
  },
  {
    "molecule": "CC(=O)N1CC2CC23C1=CC(=O)c1[nH]cc(C)c13 (stereo unspecified)",
    "Rf": 0.9
  },
  {
    "molecule": "COc1ccc2[nH]c(C(=O)N3CC4CC45C3=CC(=O)c3[nH]cc(C)c35)cc2c1 (stereo unspecified)",
    "Rf": 0.47
  },
  {
    "molecule": "Cc1c[nH]c2c1C13CC1CN(C(=O)c1cc4cc(NC(=O)c5cc6ccccc6[nH]5)ccc4[nH]1)C3=CC2=O (stereo unspecified)",
    "Rf": 0.3
  },
  {
    "molecule": "CCCCCC(=O)N1CC2CC23C1=CC(=O)c1[nH]cc(C)c13 (stereo unspecified)",
    "Rf": 0.35
  },
  {
    "molecule": "Cc1c[nH]c2c1C13CC1CN(S(=O)(=O)c1ccccc1)C3=CC2=O (stereo unspecified)",
    "Rf": 0.58
  },
  {
    "molecule": "Cc1c[nH]c2c1C13CC1CN(C(=O)c1ccc[nH]1)C3=CC2=O (stereo unspecified)",
    "Rf": 0.7
  },
  {
    "molecule": "Cc1c[nH]c2c1C13CC1CN(C(=O)OC(C)(C)C)C3=CC2=O (stereo unspecified)",
    "Rf": 0.35
  },
  {
    "molecule": "COc1c(O)c2c(c3cc(C(=O)N4CCc5c4c(O)c(OC)c4[nH]c(C(=O)N6C[C@H]7C[C@@]78C6=CC(=O)c6[nH]cc(C)c68)cc54)[nH]c13)CCN2C(N)=O [(+)-CC-1065]",
    "Rf": 0.39
  },
  {
    "molecule": "CCCCCC(=O)Nc1ccc2nc(C(=O)N3CC4CC45C3=CC(=O)c3[nH]cc(C)c35)ccc2c1 (stereo unspecified)",
    "Rf": 0.15
  },
  {
    "molecule": "Cc1c[nH]c2c1C13CC1CN=C3C=C2O (stereo unspecified)",
    "Rf": 0.87
  },
  {
    "molecule": "CC1=C(C(=O)N2CC3CC34C2=CC(=O)c2[nH]cc(C)c24)Cc2ccccc21 (stereo unspecified)",
    "Rf": 0.39
  },
  {
    "molecule": "Cc1c[nH]c2c1C13CC1CN(C(=O)c1cc4ccccc4s1)C3=CC2=O (stereo unspecified)",
    "Rf": 0.41
  }
]

###

test system: Nucleic Acid; test: Induced circular dichroism (ICD), expressed as molar ellipticity, in the presence of calf-thymus DNA; assay type: functional; details: Bos taurus
Label condition met when ICD is at or above 0.01; anything below gets condition not met.

[
  {
    "molecule": "Cc1c[nH]c2c1C13CC1CN(C(=O)c1ccc4ccccc4c1)C3=CC2=O (centres undefined)",
    "test system": "Nucleic Acid",
    "discrete label": "condition not met"
  },
  {
    "molecule": "Cc1c[nH]c2c1C13CC1CN=C3C=C2O (centres undefined)",
    "test system": "Nucleic Acid",
    "discrete label": "condition not met"
  },
  {
    "molecule": "CC(=O)N1CC2CC23C1=CC(=O)c1[nH]cc(C)c13 (centres undefined)",
    "test system": "Nucleic Acid",
    "discrete label": "condition not met"
  },
  {
    "molecule": "Cc1c[nH]c2c1C13CC1CN(C(=O)c1cc4ccccc4s1)C3=CC2=O (centres undefined)",
    "test system": "Nucleic Acid",
    "discrete label": "condition not met"
  },
  {
    "molecule": "Cc1c[nH]c2c1C13CC1CN(C(=O)c1cc4cc(NC(=O)c5cc6cc(NC(=O)c7ccccc7)ccc6[nH]5)ccc4[nH]1)C3=CC2=O (centres undefined)",
    "test system": "Nucleic Acid",
    "discrete label": "condition met"
  },
  {
    "molecule": "COc1c(O)ccc2cc(C(=O)N3CC4CC45C3=CC(=O)c3[nH]cc(C)c35)[nH]c12 (centres undefined)",
    "test system": "Nucleic Acid",
    "discrete label": "condition met"
  },
  {
    "molecule": "Cc1c[nH]c2c1C13CC1CN(C(=O)c1ccc(NC(=O)c4ccccc4)cc1)C3=CC2=O (centres undefined)",
    "test system": "Nucleic Acid",
    "discrete label": "condition met"
  },
  {
    "molecule": "Cc1c[nH]c2c1C13CC1CN(C(=O)c1ccccn1)C3=CC2=O (centres undefined)",
    "test system": "Nucleic Acid",
    "discrete label": "condition not met"
  },
  {
    "molecule": "CCCCCCCCCC(=O)N1CC2CC23C1=CC(=O)c1[nH]cc(C)c13 (centres undefined)",
    "test system": "Nucleic Acid",
    "discrete label": "condition not met"
  },
  {
    "molecule": "Cc1c[nH]c2c1C13CC1CN(C(=O)c1cc4ccccc4n1C)C3=CC2=O (centres undefined)",
    "test system": "Nucleic Acid",
    "discrete label": "condition not met"
  },
  {
    "molecule": "Cc1c[nH]c2c1C13CC1CN(C(=O)c1cc4cc(NC(N)=O)ccc4[nH]1)C3=CC2=O (centres undefined)",
    "test system": "Nucleic Acid",
    "discrete label": "condition met"
  },
  {
    "molecule": "Cc1c[nH]c2c1C13CC1CN(S(C)(=O)=O)C3=CC2=O (centres undefined)",
    "test system": "Nucleic Acid",
    "discrete label": "condition not met"
  },
  {
    "molecule": "COc1ccc2[nH]c(C(=O)N3CC4CC45C3=CC(=O)c3[nH]cc(C)c35)cc2c1 (centres undefined)",
    "test system": "Nucleic Acid",
    "discrete label": "condition met"
  },
  {
    "molecule": "COc1c(O)c2c(c3cc(C(=O)N4CCc5c4c(O)c(OC)c4[nH]c(C(=O)N6C[C@H]7C[C@@]78C6=CC(=O)c6[nH]cc(C)c68)cc54)[nH]c13)CCN2C(N)=O [(+)-CC-1065]",
    "test system": "Nucleic Acid",
    "discrete label": "condition met"
  },
  {
    "molecule": "Cc1c[nH]c2c1C13CC1CN(C(=O)OC(C)(C)C)C3=CC2=O (centres undefined)",
    "test system": "Nucleic Acid",
    "discrete label": "condition not met"
  },
  {
    "molecule": "Cc1c[nH]c2c1C13CC1CN(C(=O)c1cc4cc(NC(=O)c5cc6ccccc6[nH]5)ccc4[nH]1)C3=CC2=O (centres undefined)",
    "test system": "Nucleic Acid",
    "discrete label": "condition met"
  },
  {
    "molecule": "Cc1c[nH]c2c1C13CC1CN(C(=O)c1cc4cc(NC(=O)c5cc6ccccc6o5)ccc4[nH]1)C3=CC2=O (centres undefined)",
    "test system": "Nucleic Acid",
    "discrete label": "condition met"
  },
  {
    "molecule": "CC1=C(C(=O)N2CC3CC34C2=CC(=O)c2[nH]cc(C)c24)Cc2ccccc21 (centres undefined)",
    "test system": "Nucleic Acid",
    "discrete label": "condition not met"
  }
]
